Give TGI for every item shown.
System: U251 CNS
Assay: NCI tumour cell line growth inhibition, 48 h

Take a look at these entries with their results.
# MOLECULE, TGI
records = [
    ("CC/C=C/C(=O)CC(O)(C(F)(F)F)C(F)(F)F", "> 100 µM"),
    ("COc1c2ccccc2c(OC)c2nc(C)ccc12", "> 46.4 µM"),
    ("COc1cc(NP(=O)(Oc2ccccc2)Oc2ccccc2)ccc1Nc1c2ccccc2nc2c1[nH]c1ccccc12", "6.85 µM"),
    ("COC(=O)C12C(=O)O[C@H](C)C1(O)C(C)C(=O)N2C (stereo not given in full)", "> 100 µM"),
    ("Cc1cc(N2CCCC2)nc(NC2CCCC(Nc3ccnc4cc(Cl)ccc34)C2)n1 (stereo not given)", "2.86 µM"),
]

Each of the following entries comes with a recorded value; kindly state TGI for each.
1. O=c1c2cc([N+](=O)[O-])ccc2n2n1Cc1ccccc1C2
2. Cn1nc(-c2ccccc2)nc1[N+](=O)[O-]
3. O=C(C[n+]1ccccc1)N=N/C(C(=O)Nc1c(Cl)c(O)c2ccccc2c1O)=C1/C(=O)Oc2cc(O)ccc2C1=O
4. N#Cc1c(Cl)c2ccccc2n2c1nc1ccccc12
5. COc1cccc2c(Nc3ccc(S(=O)(=O)NC(C)=O)cc3)c3ccc([N+](=O)[O-])cc3nc12

(A)
> 100 µM
> 10 µM
45.9 µM
> 100 µM
> 53.5 µM

====

Tested on: SK-MEL-28 melanoma
Assay: NCI tumour cell line growth inhibition, 48 h
ENDPOINT: TGI

Take a look at these entries with their results.
# COMPOUND, TGI
measured = [
    ("CC1(C)CC(n2cnc(-c3ccc(F)cc3)c2-c2ccnc(N)n2)CC(C)(C)N1", "> 25 µM"),
    ("O=[N+]([O-])c1ccc2[nH]ncc2c1Cl", "> 100 µM"),
    ("CCOC(=O)C(NC(=O)CC(C)C)(Nc1ccc(S(=O)(=O)Nc2nc(C)cc(C)n2)cc1)C(F)(F)F (stereo not drawn)", "> 100 µM"),
    ("CN(C)CCCCN1c2ccccc2Sc2cc(N=[N+]=[N-])ccc21", "3.3 µM"),
    ("C=CCN1C=CC(=O)[C@H](O[Si](C)(C)C(C)(C)C)[C@@H]1/C=C/c1ccccc1", "28.6 µM"),
]

Each of the following entries comes with a recorded value; kindly state TGI for each.
1. CCOc1ccc(Nc2nc(-c3ccc4c(c3)NC(=O)CO4)cs2)cc1
2. CN(C(=O)Cc1ccc(Cl)c(Cl)c1)[C@@H]1CCCC[C@H]1[N+]1(C)CC=CC1
3. C[C@@H]1N=C(c2ccc(Br)cc2)Nc2nc3ccccn3c2C1=O
4. O=c1ccnc2c1ccc1[nH]cccc12
5. COc1ccc2c(CN3CCC[C@H]3C(=O)O)cc3cc4c(cc3c2c1)OCO4
6. NC(N)=N/N=C/c1c(-c2ccc([N+](=O)[O-])cc2)nc2n1CCS2
7. CN(C)C(=O)Nc1cc2c3c(c1)CCCN3CCC2

(A)
19.6 µM
> 100 µM
> 100 µM
> 100 µM
36.8 µM
34.8 µM
> 10 µM

Each of the following entries comes with a recorded value; kindly state TGI for each.
1. O=C(O)c1ccc2c(c1)CC1(C2)Cc2ccccc2C1=O (stereo not drawn)
2. CSC1=N/C(=C\c2ccco2)C(=O)N1CN1CCCCC1

(A)
1: > 100 µM; 2: > 100 µM

Each of the following entries comes with a recorded value; kindly state TGI for each.
1. COc1cc(C=Nc2ccc(C(C)C)cc2)cc(OC)c1OC
2. O=C1NC(=S)NC(=O)C1=Cc1cccc2cc3ccccc3cc12
3. CCCCCC(CO)C(O)(C(F)(F)F)C(F)(F)F (stereo not drawn)
4. C=C(Br)CN(C(C)=O)C1CCCCC1
5. CCc1nc(N)nc(C(=O)NCCNC(=O)c2nc(N)nc(CC)c2C)c1C
6. CCCCC(=O)NC1(c2cc3ccccc3s2)CCCCC1

(A)
1: > 100 µM; 2: 6.58 µM; 3: > 10 µM; 4: > 100 µM; 5: > 100 µM; 6: > 100 µM

Hey, just so you know, these numbers are from PubChem BioAssay (NCI).
